# assay.explanation: physchem
# Type: physicochemical
# experimental.setup: water, Maximum Solubility (solubility of E2-CDS in water)

compound: CN1C=CCC(C(=O)O[C@H]2CC[C@H]3[C@@H]4CCc5cc(O)ccc5[C@H]4CC[C@]23C)=C1 [Example E2-CDS]
solubility: 0.2 µg/mL

* * *

# assay.explanation: physchem
# experimental.setup: 25% aqueous hpcd
readout.type: solubility at 84 h (mg/mL)

compound: O=C(O)CCCc1ccc(N(CCCl)CCCl)cc1
readout.type: solubility at 84 h
readout.units: mg/mL
quantitative.readout: 18.4
